List of Ratio EC50 values.
# Test system: Toxoplasma gondii
# ASSAY: Selectivity ratio for EC50 for wild type Toxoplasma gondii to EC50 for Cryptosporidium parvum IMPDH expressing Toxoplasma gondii
# Assay type: functional

>  <SMILES_TEXT>
Cn1nc(CC(=O)Nc2ccc(Br)c(C(F)(F)F)c2)c2ccccc2c1=O

>  <ASSAY_SYSTEM>
Toxoplasma gondii

>  <Ratio EC50>
14

$$$$
>  <SMILES_TEXT>
Cn1nc(CC(=O)Nc2ccc3oc4ccccc4c3c2)c2ccccc2c1=O

>  <ASSAY_SYSTEM>
Toxoplasma gondii

>  <Ratio EC50>
7

$$$$
>  <SMILES_TEXT>
Cn1nc(CC(=O)Nc2ccc(Cl)c(C(F)(F)F)c2)c2ccccc2c1=O

>  <ASSAY_SYSTEM>
Toxoplasma gondii

>  <Ratio EC50>
60

$$$$
>  <SMILES_TEXT>
Cn1nc(CC(=O)Nc2ccc3oc4c(c3c2)CCCC4)c2ccccc2c1=O

>  <ASSAY_SYSTEM>
Toxoplasma gondii

>  <Ratio EC50>
2

$$$$

----------
# ASSAY_SYSTEM: Inosine-5'-monophosphate dehydrogenase (Cryptosporidium parvum, UniProt Q8T6T2)
# Sequence (Q8T6T2 whole entry): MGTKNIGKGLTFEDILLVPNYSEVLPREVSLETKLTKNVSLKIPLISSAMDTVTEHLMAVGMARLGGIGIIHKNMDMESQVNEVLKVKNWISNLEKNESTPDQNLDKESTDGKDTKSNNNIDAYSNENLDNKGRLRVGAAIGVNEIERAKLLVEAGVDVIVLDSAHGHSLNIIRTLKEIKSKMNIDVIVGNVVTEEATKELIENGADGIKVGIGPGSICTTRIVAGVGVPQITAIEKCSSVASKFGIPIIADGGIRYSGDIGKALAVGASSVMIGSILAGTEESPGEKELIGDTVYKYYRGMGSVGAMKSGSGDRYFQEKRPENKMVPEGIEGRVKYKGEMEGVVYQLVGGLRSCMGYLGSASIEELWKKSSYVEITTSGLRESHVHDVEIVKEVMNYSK
# ASSAY: Inhibition of recombinant Cryptosporidium parvum IMPDH assessed as production of NADH by fluorescence assay
pIC50: −log10 of the molar value.
Each item that follows carries a reported pIC50.

>  <SMILES_TEXT>
Cn1nc(CC(=O)NC(C)(C)C)c2ccccc2c1=O

>  <ASSAY_SYSTEM>
Inosine-5'-monophosphate dehydrogenase (Cryptosporidium parvum, UniProt Q8T6T2)

>  <QUALIFIER>
<

>  <pIC50>
5.30

$$$$
>  <SMILES_TEXT>
Cn1nc(CC(=O)Nc2ccc3oc4c(c3c2)CCCC4)c2ccccc2c1=O

>  <ASSAY_SYSTEM>
Inosine-5'-monophosphate dehydrogenase (Cryptosporidium parvum, UniProt Q8T6T2)

>  <QUALIFIER>
=

>  <pIC50>
7.70

$$$$
>  <SMILES_TEXT>
Cn1nc(CC(=O)Nc2ccc(C(F)(F)F)cc2)c2ccccc2c1=O

>  <ASSAY_SYSTEM>
Inosine-5'-monophosphate dehydrogenase (Cryptosporidium parvum, UniProt Q8T6T2)

>  <QUALIFIER>
<

>  <pIC50>
5.30

$$$$
>  <SMILES_TEXT>
Cn1nc(CC(=O)Nc2ccc3ccccc3c2)c2ccccc2c1=O

>  <ASSAY_SYSTEM>
Inosine-5'-monophosphate dehydrogenase (Cryptosporidium parvum, UniProt Q8T6T2)

>  <QUALIFIER>
=

>  <pIC50>
7.20

$$$$
>  <SMILES_TEXT>
Cc1cc2cc(NC(=O)Cc3nn(C)c(=O)c4ccccc34)ccc2o1

>  <ASSAY_SYSTEM>
Inosine-5'-monophosphate dehydrogenase (Cryptosporidium parvum, UniProt Q8T6T2)

>  <QUALIFIER>
=

>  <pIC50>
7.19

$$$$
>  <SMILES_TEXT>
O=C(Cc1n[nH]c(=O)c2ccccc12)Nc1ccc(Cl)c(C(F)(F)F)c1

>  <ASSAY_SYSTEM>
Inosine-5'-monophosphate dehydrogenase (Cryptosporidium parvum, UniProt Q8T6T2)

>  <QUALIFIER>
=

>  <pIC50>
7.40

$$$$

Data origin, for the record: ChEMBL document CHEMBL2311526
